Assay: IUF_NPC2b_neuronal_migration_120hr: Leibniz Research Institute for Environmental Medicine (IUF) 120-hour Neural Progenitor Cell Migration Assay for Neuron Migration (NPC2b) (AID 2284300)
Description: IUF_NPC2-5 is a cell-based, multiplexed assay that uses hNPC, a human primary neural progenitor cells, with measurements taken at 72 or 120 hours after chemical dosing in a 96-well plate. […] The processes radial glia migration, neuronal and oligodendrocyte migration as well as neuronal differentiation, neuronal morphology and oligodendrocyte differentiation are studied using automated phase contrast imaging and automated fluorescence imaging in combination with high content image analysis. […]
Calls of active or inactive are those of the source. How the source made its calls: active means hit-call score of the fitted dose curve at least 0.9, where 1 is the maximum; inactive means score below 0.9.
One label from this list, please: Y for active, N for inactive

Known results for molecules:
>  <Molecule>
CCOP(=O)(OCC)SCSC(C)(C)C

>  <Label value>
N

$$$$
>  <Molecule>
CNC(=N[N+](=O)[O-])NCC1CCOC1 (stereo not given)

>  <Label value>
N

$$$$

Alright, here's another molecule for you.
// return assay outcome for Brc1ccc(Oc2cc(Br)c(Br)cc2Br)c(Br)c1
N

---

assay: TOX21_PR_LUC_Followup_Agonist_viability: Viability Assessment in the Tox21 HEK293 Progesterone Receptor (PR) Agonism Luciferase Follow-Up Assay (AID 2283941);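 further: compound exposure 16 h at 37 °C; loss of signal means cytotoxicity so actives lower viability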
Records with an inconclusive call do not appear. The source made the active and inactive calls. How the source made its calls: active means hit-call score of the fitted dose curve at least 0.9, where 1 is the maximum; inconclusive means response in the unintended direction; inactive means score below 0.9.
Property label: outcome

Example cases with answers are listed next.
>  <Compound>
CC(C)(c1cc(Cl)c(O)c(Cl)c1)c1cc(Cl)c(O)c(Cl)c1

>  <Value reported>
inactive

$$$$
>  <Compound>
CCOC(=O)C1(c2ccccc2)CCN(CCC(C#N)(c2ccccc2)c2ccccc2)CC1

>  <Value reported>
inactive

$$$$
>  <Compound>
C=CC[C@]1(O)CC[C@H]2[C@@H]3CCC4=CC(=O)CCC4=C3C=C[C@@]21C

>  <Value reported>
inactive

$$$$
>  <Compound>
C[C@H]1CCC[C@H](O)CCCCCc2cc(O)cc(O)c2C(=O)O1

>  <Value reported>
inactive

$$$$
>  <Compound>
COc1ccc2c(c1OC)CN1CCc3cc4c(cc3C1C2)OCO4 (stereo unspecified)

>  <Value reported>
inactive

$$$$

Now look at this one.
Need outcome, item Nc1ccc(Cl)cc1C(=O)c1ccccc1F
inactive

---

assay: TOX21_p53_BLA_p5_viability: Viability Assessment in the Tox21 HCT-116 p53 Agonism Beta-lactamase Assay, Phase 5 (AID 2283600)
Records with an inconclusive call do not appear. Active and inactive are the calls of the source. How the source made its calls: active means hit-call score of the fitted dose curve at least 0.9, where 1 is the maximum; inconclusive means response in the unintended direction; inactive means score below 0.9.
Property label: AC50

Before answering, review these 5 worked examples.
>  <Compound>
CC(C)=CCN1CC[C@]2(C)c3cc(O)ccc3C[C@H]1[C@H]2C

>  <AC50>
inactive

$$$$
>  <Compound>
ClCC1CO1 (stereo not given)

>  <AC50>
inactive

$$$$
>  <Compound>
COc1cc(CCN)cc(OC)c1OC

>  <AC50>
inactive

$$$$
>  <Compound>
CCOP(=S)(OCC)Oc1ncn(-c2ccccc2)n1

>  <AC50>
inactive

$$$$
>  <Compound>
O=C1c2ccccc2C(=O)C1C(=O)C(c1ccccc1)c1ccccc1

>  <AC50>
inactive

$$$$

Could you tell me which AC50 is on file for O=C(N[C@@H]1N=C(c2ccccc2F)c2cccc3c2N(CC3)C1=O)c1cc2ccccc2[nH]1 ?
inactive

Requested read-out: AC50. Entry: CCCCCCCCCCCOC(=O)c1ccccc1C(=O)OCCCCCCCCCCC
inactive

Value lookup for AC50; key = CC(Cc1ccccc1)NCCn1cnc2c1c(=O)n(C)c(=O)n2C (stereo not given)
inactive

For the compound shown here, S=c1[nH]c2ccccc2[nH]1 , give the reported AC50.
inactive

What does the record list as AC50 for c1ccc(Nc2ccc3ccccc3c2)cc1 ?
inactive

What AC50 value was documented for this compound, CSc1ccc(C(=O)C(C)(C)N2CCOCC2)cc1 ?
inactive
